experimental target: Voltage-gated inwardly rectifying potassium channel KCNH2 (Homo sapiens)
experimental protocol: hERG protection against dofetilide inhibition, confirmation, cell-based, thallium flux, duplicate retest, dofetilide IC70 (AID 1835)
measurement conditions: hERG cell line, FluxOR thallium flux, dofetilide-blocked; at 10 µM
Among all 2,400 compounds or so, about 750 (31%) were called active.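 How the source made its calls: active means median signal gain over dofetilide-blocked control wells reaching their mean plus 3 SD, so readout 1 at least 0; inactive means the rest.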 This is one part of the list.
Labels: active, inactive

compound: CCn1nc(/C=C/c2ccccc2)nc2c(=O)n(C)c(=O)nc1-2
qualitative label: inactive

compound: O=c1c2ccccc2[nH]c(=S)n1-c1ccc2c(c1)OCCO2
qualitative label: inactive

compound: COc1ccc(CN2CCCC(C(=O)c3sccc3C)C2)cc1O (centres undefined)
qualitative label: inactive

compound: NCCc1ccc(S(N)(=O)=O)cc1
qualitative label: inactive

compound: CN(C)C(=O)O/N=C(\N)COc1ccc(C(C)(C)C)cc1
qualitative label: inactive

compound: COc1ccc2c(c1)/C(=C/c1cnc[nH]1)C(=O)N2
qualitative label: inactive

compound: CCOC(=O)Cn1cc([N+](=O)[O-])nc1[N+](=O)[O-]
qualitative label: inactive

compound: CN1CCCCC1c1ccc(-c2cccnc2)nc1 (centres undefined)
qualitative label: inactive

compound: O=C1CC(=O)N(c2cccc(C(F)(F)F)c2)C(=O)N1
qualitative label: inactive

compound: COc1cccc(OC)c1C(=O)Nc1nc(N)n(-c2ccccc2)n1
qualitative label: inactive

compound: C1CCC2S[C@H]3CCCCC3NC2C1 (some centres undefined)
qualitative label: inactive

compound: O=S(=O)(c1ccccc1)N1CCCCC1c1cccnc1 (centres undefined)
qualitative label: inactive

compound: CCCc1[nH]nc2c1C1(C(=O)N(Cc3ccccc3)c3ccccc31)C(C(=O)OC)=C(N)O2 (centres undefined)
qualitative label: inactive

compound: O=c1c2cc(Br)ccc2[nH]c(=S)n1-c1ccccc1
qualitative label: active

---

experimental target: Voltage-gated inwardly rectifying potassium channel KCNH2 (Homo sapiens)
experimental protocol: hERG protection against dofetilide inhibition, confirmation, cell-based, thallium flux, duplicate retest, dofetilide IC70 (AID 1835)
measurement conditions: hERG cell line, FluxOR thallium flux, dofetilide-blocked; at 10 µM
Screen size: about 2,400 compounds; about 750 (31%) were called active.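 Rule for the calls: active = median signal gain over dofetilide-blocked control wells reaching their mean plus 3 SD, so readout 1 at least 0; inactive = the rest.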 Some of the results follow.
Labels: active, inactive

compound: O=C1NC(=S)N(c2ccc(F)cc2)C(=O)/C1=C/c1ccco1
experimental target: Voltage-gated inwardly rectifying potassium channel KCNH2 (Homo sapiens)
qualitative label: active
--
compound: Cc1ccc(/C=C2\C(=O)NC(=S)N(c3ccc(F)cc3)C2=O)s1
experimental target: Voltage-gated inwardly rectifying potassium channel KCNH2 (Homo sapiens)
qualitative label: active
--
compound: O=C(O)CCC(=O)NCCC1=c2ccccc2=N/C1=C\c1c(O)n(Cc2ccc(F)cc2)c(=S)[nH]c1=O
experimental target: Voltage-gated inwardly rectifying potassium channel KCNH2 (Homo sapiens)
qualitative label: active
--
compound: Cc1nc2ccccc2c(=O)n1-c1cc([N+](=O)[O-])cc([N+](=O)[O-])c1
experimental target: Voltage-gated inwardly rectifying potassium channel KCNH2 (Homo sapiens)
qualitative label: inactive
--
compound: O=C1NC(=O)N(c2ccccc2)C(=O)/C1=C/c1ccc(Sc2ccccc2)o1
experimental target: Voltage-gated inwardly rectifying potassium channel KCNH2 (Homo sapiens)
qualitative label: inactive
--
compound: COc1ccc(-c2nc(CSCC(=O)N3CCC4(CC3)OCCO4)c(C)o2)cc1OC
experimental target: Voltage-gated inwardly rectifying potassium channel KCNH2 (Homo sapiens)
qualitative label: inactive
--
compound: Cc1ccccc1N1C(=O)/C(=C/c2ccco2)C(=O)NC1=S
experimental target: Voltage-gated inwardly rectifying potassium channel KCNH2 (Homo sapiens)
qualitative label: active
--
compound: CN1C(=O)/C(=C\c2ccc(Br)s2)C(=O)NC1=S
experimental target: Voltage-gated inwardly rectifying potassium channel KCNH2 (Homo sapiens)
qualitative label: active
--
compound: C=CCN1C(=O)/C(=C/c2ccc(Br)s2)C(=O)NC1=S
experimental target: Voltage-gated inwardly rectifying potassium channel KCNH2 (Homo sapiens)
qualitative label: active
--
compound: CCCCn1c(O)c(C(CC)=Nc2ccc(OCC)cc2)c(=O)[nH]c1=O
experimental target: Voltage-gated inwardly rectifying potassium channel KCNH2 (Homo sapiens)
qualitative label: inactive
--
compound: O=C1NC(=O)N(CCNc2ncc(C(F)(F)F)cc2Cl)C(=O)C1Cc1ccc(Cl)cc1 (stereo not given)
experimental target: Voltage-gated inwardly rectifying potassium channel KCNH2 (Homo sapiens)
qualitative label: inactive
--
compound: O=c1[nH]c(=S)[nH]c(O)c1/C=C1/C=c2ccccc2=N1
experimental target: Voltage-gated inwardly rectifying potassium channel KCNH2 (Homo sapiens)
qualitative label: active
--
compound: COc1ccc2c3c1OC1C(O)C=CC4C(C2)[N+](C)(C)CCC341 (stereo not given)
experimental target: Voltage-gated inwardly rectifying potassium channel KCNH2 (Homo sapiens)
qualitative label: inactive
--
compound: O=C1NC(=O)C(=Cc2ccc(-c3cc(Cl)ccc3[N+](=O)[O-])o2)C(=O)N1
experimental target: Voltage-gated inwardly rectifying potassium channel KCNH2 (Homo sapiens)
qualitative label: inactive
--
compound: CN1C(=O)C(Cc2ccc3c(c2)OCO3)C(=O)N(C)C1=O
experimental target: Voltage-gated inwardly rectifying potassium channel KCNH2 (Homo sapiens)
qualitative label: inactive
--
compound: CC(=NCc1ccco1)c1c(O)n(C)c(=O)n(C)c1=O
experimental target: Voltage-gated inwardly rectifying potassium channel KCNH2 (Homo sapiens)
qualitative label: inactive
--
compound: O=c1[nH]c(=S)[nH]c(O)c1N=Nc1ccc(S(=O)(=O)N2CCc3ccccc32)cc1
experimental target: Voltage-gated inwardly rectifying potassium channel KCNH2 (Homo sapiens)
qualitative label: active
--
compound: O=C1NC(=O)C(=Cc2ccc(-c3ccc(Cl)cc3)o2)C(=O)N1
experimental target: Voltage-gated inwardly rectifying potassium channel KCNH2 (Homo sapiens)
qualitative label: inactive
--
compound: CCCCN1C(=O)/C(=C/c2ccc(N3CCCCCC3)cc2)C(=O)NC1=S
experimental target: Voltage-gated inwardly rectifying potassium channel KCNH2 (Homo sapiens)
qualitative label: inactive
--
compound: CC(=NCc1ccco1)c1c(O)n(-c2ccc(C)cc2)c(=O)[nH]c1=O
experimental target: Voltage-gated inwardly rectifying potassium channel KCNH2 (Homo sapiens)
qualitative label: inactive
